Values were extracted from BigSolDB 2.1.

Conditions: in acetic acid, 308.15 K
Measurement Name: solubility (mole fraction)

Name the reported solubility (mole fraction) value associated with the compound O=C(O)CCCCCCCCCCC(=O)O
0.0103
